measurement-target: FLT-3 (Homo sapiens, UniProt P36888)
Sequence (P36888 27-993, species assumed): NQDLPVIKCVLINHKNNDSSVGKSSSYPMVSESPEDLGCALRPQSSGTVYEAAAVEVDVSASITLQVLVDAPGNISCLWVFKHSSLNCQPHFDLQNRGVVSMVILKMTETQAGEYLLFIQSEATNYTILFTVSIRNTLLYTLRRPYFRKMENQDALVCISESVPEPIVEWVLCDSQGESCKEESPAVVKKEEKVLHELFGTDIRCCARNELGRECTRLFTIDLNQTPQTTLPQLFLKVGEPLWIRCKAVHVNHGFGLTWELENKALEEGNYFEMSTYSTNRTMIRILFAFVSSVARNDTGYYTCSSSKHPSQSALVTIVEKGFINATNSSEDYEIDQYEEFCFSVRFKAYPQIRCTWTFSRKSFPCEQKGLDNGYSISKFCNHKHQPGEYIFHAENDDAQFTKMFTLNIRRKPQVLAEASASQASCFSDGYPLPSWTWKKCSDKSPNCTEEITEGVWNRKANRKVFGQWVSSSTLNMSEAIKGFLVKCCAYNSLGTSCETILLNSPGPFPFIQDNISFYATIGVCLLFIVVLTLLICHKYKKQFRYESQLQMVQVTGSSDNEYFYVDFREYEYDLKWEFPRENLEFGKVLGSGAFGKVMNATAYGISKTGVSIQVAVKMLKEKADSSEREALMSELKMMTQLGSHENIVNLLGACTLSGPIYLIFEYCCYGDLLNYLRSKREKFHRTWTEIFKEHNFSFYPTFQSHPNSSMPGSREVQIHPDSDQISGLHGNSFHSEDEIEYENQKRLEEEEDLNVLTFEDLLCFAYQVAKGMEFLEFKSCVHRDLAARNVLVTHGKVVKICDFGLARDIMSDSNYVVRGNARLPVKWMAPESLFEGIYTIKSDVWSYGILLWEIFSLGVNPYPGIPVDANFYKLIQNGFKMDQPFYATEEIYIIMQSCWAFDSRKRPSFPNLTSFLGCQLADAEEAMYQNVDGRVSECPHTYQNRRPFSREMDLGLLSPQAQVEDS
experiment-description: FLT-3 inhibition assay, radiometric filter-binding
Type: biochemical
pKi: −log10 of the molar value.
This section presents compounds with their documented pKi values.

compound: Cc1cc(Nc2cc(N3CC(C)(C(C)(C)F)C3)nc(Sc3ccc(NC(=O)CC(F)(F)F)cc3)n2)[nH]n1 [Compound 183]
pKi: ≥ 7.30

compound: Cc1cc(Nc2cc(N3CCC3)nc(Sc3ccc(NC(=O)c4ocnc4C)cc3)n2)n[nH]1 [Compound 167]
pKi: 6.00 to 6.82

compound: CCc1cc(Nc2cc(N3CCC3)nc(Sc3ccc(NC(=O)c4ccccc4Cl)cc3)n2)n[nH]1 [Compound 64]
pKi: 6.82 to 7.30

compound: Cc1cc(Nc2nc(Sc3ccc(NC(=O)CC(F)(F)F)cc3)nc(N3CC(F)(C4CC4)C3)c2F)[nH]n1 [Compound 178]
pKi: 6.00 to 6.82

compound: Cc1cc(Nc2cc(N3CC(F)(C4CC4)C3)nc(Sc3ccc4nc(C(F)(F)F)[nH]c4c3)n2)[nH]n1 [Compound 202]
pKi: ≥ 7.30

compound: Cc1cnc(Nc2cc(N3CC(N(C)C)C3)nc(Sc3ccc(NC(=O)C4CC4)cc3)n2)s1 [Compound 1]
pKi: 6.82 to 7.30

compound: Cc1cc(Nc2cc(N3CC(N4CC[C@H](F)C4)C3)nc(Sc3ccc4ncccc4c3)n2)n[nH]1 [Compound 160]
pKi: ≥ 7.30

compound: Cc1cc(Nc2cc(N3CC(C)C3)nc(Sc3ccc(NC(=O)c4ccccc4Cl)cc3)n2)n[nH]1 [Compound 39]
pKi: 6.82 to 7.30

compound: Cc1cc(Nc2cc(N3CCC3)nc(Sc3ccc(C(=O)Nc4ccccc4Cl)cc3)n2)[nH]n1 [Compound 48]
pKi: 6.00 to 6.82

compound: Cc1cc(Nc2cc(N3CCC3)nc(Sc3ccc(NC(=O)c4ccncc4C(F)(F)F)cc3)n2)[nH]n1 [Compound 146]
pKi: 6.00 to 6.82

compound: Cc1cc(Nc2cc(N3CC(F)(C4CC4)C3)nc(Sc3ccc(-c4ncc(C)o4)cc3)n2)[nH]n1 [Compound 175]
pKi: 6.00 to 6.82

compound: Cc1cc(Nc2cc(N3CC(F)(C4CC4)C3)nc(Sc3ccc4ccn(CC(F)(F)F)c(=O)c4c3)n2)[nH]n1 [Compound 189]
pKi: 6.82 to 7.30

compound: Cc1cc(Nc2cc(N3CC(N4CCCC4)C3)nc(Sc3ccc4ncccc4c3)n2)n[nH]1 [Compound 159]
pKi: ≥ 7.30

compound: COC1(C)CN(c2cc(Nc3cc(C)n[nH]3)nc(Sc3ccc(NC(=O)c4ccccc4Cl)cc3)n2)C1 [Compound 51]
pKi: 6.82 to 7.30

compound: O=C(CC(F)(F)F)Nc1ccc(Sc2nc(Nc3cc[nH]n3)cc(N3CC(F)(C4CC4)C3)n2)cc1 [Compound 148]
pKi: 6.82 to 7.30

compound: Cc1cc(Nc2cc(N3CC(O)(C4CC4)C3)nc(Sc3cc(F)c4nc(C)ccc4c3)n2)[nH]n1 [Compound 172]
pKi: 6.82 to 7.30

compound: Cc1cc(Nc2cc(N3CC(O)(C4CC4)C3)nc(Sc3ccc4nc(C(F)(F)F)n(C)c4c3)n2)[nH]n1 [Compound 155]
pKi: 6.82 to 7.30

compound: Cc1cc(Nc2cc(N3CC(F)(C4CC4)C3)nc(Sc3ccc(NS(C)(=O)=O)cc3)n2)[nH]n1 [Compound 151]
pKi: ≥ 7.30

compound: Cc1cc(Nc2cc(N3CC(N4CCOCC4)C3)nc(Sc3ccc(NC(=O)CC(F)(F)F)cc3)n2)[nH]n1 [Compound 199]
pKi: ≥ 7.30

compound: Cc1cc(Nc2cc(N3CC(F)(C4CC4)C3)nc(Sc3ccc(NC(=O)CN(C)C)cc3)n2)[nH]n1 [Compound 152]
pKi: 6.00 to 6.82

compound: Cc1cc(Nc2cc(N3CC(N4CCOCC4)C3)nc(Sc3ccc4nc(CC(F)(F)F)n(C)c4c3)n2)[nH]n1 [Compound 177]
pKi: 6.00 to 6.82

compound: Cc1cc(Nc2cc(N3CC(F)(C4CC4)C3)nc(Sc3ccc4nc(C(F)(F)F)cn4c3)n2)[nH]n1 [Compound 190]
pKi: 6.00 to 6.82

compound: Cc1cc(Nc2cc(N3CC(C)(C#N)C3)nc(Sc3ccc(NC(=O)CC(F)(F)F)cc3)n2)[nH]n1 [Compound 169]
pKi: ≥ 7.30

compound: CCC(=O)Nc1ccc(Sc2nc(Nc3cc(C)n[nH]3)cc(N3CC(C)(N4CCOCC4)C3)n2)cc1 [Compound 88]
pKi: ≥ 7.30

compound: CCC(=O)Nc1ccc(Sc2nc(Nc3cc(C4CC4)n[nH]3)cc(N3CC(N4CCOCC4)C3)n2)cc1 [Compound 78]
pKi: ≥ 7.30

compound: CC(C)(C)c1cc(Nc2cc(N3CCC3)nc(Sc3ccc(NC(=O)c4ccccc4Cl)cc3)n2)n[nH]1 [Compound 69]
pKi: 6.00 to 6.82

compound: Cc1cc(Nc2cc(N3CC(F)(C4CC4)C3)nc(Oc3ccc(NC(=O)CC(F)(F)F)cc3)n2)[nH]n1 [Compound 144]
pKi: ≥ 7.30

compound: Cc1cc(Nc2cc(N3CC(C)(F)C3)nc(Sc3ccc(NC(=O)CC(F)(F)F)cc3)n2)n[nH]1 [Compound 168]
pKi: ≥ 7.30

compound: CC1=NN=C(Nc2cc(N3CCC3)nc(Sc3ccc(NC(=O)c4cccc(Cl)c4F)cc3)n2)C1 [Compound 61]
pKi: 6.00 to 6.82
